Assay: Sulforhodamine B (SRB) cell viability assay
Type: cell-based
Details: rat, PC12 cells (wild-type), Cyclic T14 alone 700 nM, 1 hour, PC12
Residues, ends and D or L forms follow the SMILES beside them.
recordedEndpoint: viability at 1 h, 0.7 µM (%)
Express your answer in %, writing the number without its unit.

// query Fill in the blank: the reported viability at 1 h, 0.7 µM of CSCC[C@@H]1NC(=O)[C@H](Cc2ccc(O)cc2)NC(=O)[C@H](CO)NC(=O)[C@H](CO)NC(=O)[C@H](Cc2c[nH]c3ccccc23)NC(=O)[C@H](CCCNC(=N)N)NC(=O)[C@H](Cc2c[nH]cn2)NC(=O)[C@H](Cc2ccccc2)NC(=O)[C@H](CCC(=O)O)NC(=O)[C@H](C)NC(=O)[C@H](CCCCN)NC(=O)[C@H](Cc2c[nH]c3ccccc23)NC(=O)[C@H](Cc2c[nH]cn2)NC(=O)[C@H](C(C)C)NC1=O [Cyclic T14] (cyclo(AEFHRWSSYMVHWK)) is ____.
// result 107

----------
Experiment: Cell Counting Kit-8 (CCK-8) cell viability assay
Type: cell-based
Details: T30 5 uM alone, 1 hour, N=3; read-out: cell viability
No end group written: not given here.
recordedEndpoint: viability (%)
Return type: number; implicit unit %.

// query Need viability, item KAEFHRWSSYMVHWKNQFDHYSKQDRCSDL [T30, reference compound]
// result 74.3

----------
Experiment: Sulforhodamine B (SRB) cell viability assay
Format: cell-based
Details: cell viability, β-amyloid combined with Cyclic T14, β-Amyloid (10 μM) + Cyclic T14 50 nM, 1 hour
Residues, ends and D or L forms follow the SMILES beside them.
recordedEndpoint: viability (%)
A number alone suffices; assume %.

// query Look up viability for this compound: CSCC[C@@H]1NC(=O)[C@H](Cc2ccc(O)cc2)NC(=O)[C@H](CO)NC(=O)[C@H](CO)NC(=O)[C@H](Cc2c[nH]c3ccccc23)NC(=O)[C@H](CCCNC(=N)N)NC(=O)[C@H](Cc2c[nH]cn2)NC(=O)[C@H](Cc2ccccc2)NC(=O)[C@H](CCC(=O)O)NC(=O)[C@H](C)NC(=O)[C@H](CCCCN)NC(=O)[C@H](Cc2c[nH]c3ccccc23)NC(=O)[C@H](Cc2c[nH]cn2)NC(=O)[C@H](C(C)C)NC1=O [Cyclic T14] (cyclo(AEFHRWSSYMVHWK))
// result 102

----------
Experiment: Cell Counting Kit-8 (CCK-8) cell viability assay
Type: cell-based
Conditions: T30 5 uM + NBP-14 9 nM (3rd of 10 values); read-out: cell viability, T30 + NBP-14
Residues, ends and D or L forms follow the SMILES beside them.
recordedEndpoint: viability (%)
Output spec: scalar in %, unitless text.

// query Quick one: viability of CSCC[C@@H]1NC(=O)[C@H](Cc2ccc(O)cc2)NC(=O)[C@H](CO)NC(=O)[C@H](CO)NC(=O)[C@H](Cc2c[nH]c3ccccc23)NC(=O)[C@H](CCCNC(=N)N)NC(=O)[C@H](Cc2c[nH]cn2)NC(=O)[C@H](Cc2ccccc2)NC(=O)[C@H](CCC(=O)O)NC(=O)[C@H](C)NC(=O)[C@H](CCCCN)NC(=O)[C@H](Cc2c[nH]c3ccccc23)NC(=O)[C@H](Cc2c[nH]cn2)NC(=O)[C@H](C(C)C)NC1=O [Cyclic T14] (cyclo(AEFHRWSSYMVHWK)) ?
// result 76
